System: SNB-75 CNS
Assay: NCI tumour cell line growth inhibition, 48 h
experimental.endpoint: TGI

Name the recorded TGI for "O=C(NNC(=O)/C(=C/c1cccc([N+](=O)[O-])c1)NC(=O)c1ccccc1)Nc1ccc(Cl)cc1" . 36 µM

Now try "N#Cc1cc([N+](=O)[O-])ccc1NC(=O)C(=O)Nn1c(=S)[nH]c2ccccc2c1=O" . > 100 µM

Now try "COc1ccc(CNCCN2C(=O)c3ccc4c5c(ccc(c35)C2=O)C(=O)N(CCNCc2ccc(OC)c(OC)c2OC)C4=O)c(OC)c1OC" . 2.09 µM

---

Test system: A549 NSCLC
Assay: NCI tumour cell line growth inhibition, 48 h
GI50 for assorted molecules

Some solved entries appear below for comparison.
{"molecule": "CCN1C(=O)N(CC)C2C1NN=c1s/c(=C\\c3ccc(Br)cc3)c(=O)n12 (stereo not given)", "target.or.system": "A549 NSCLC", "observed.result": "0.313 µM"}
{"molecule": "c1ccc2c(c1)CCCc1nnc3nc4ccccc4n3c1-2", "target.or.system": "A549 NSCLC", "observed.result": "3.66 µM"}
{"molecule": "COc1ccc(C2CC(=O)Nc3c2c(C)nn3-c2nc3ccccc3[nH]2)cc1OC (stereo not given)", "target.or.system": "A549 NSCLC", "observed.result": "3.82 µM"}
{"molecule": "C=C1C(=O)O[C@H]2[C@H]1CC/C(COC(=O)NCCc1ccc(Br)cc1)=C\\CC[C@@]1(C)O[C@@H]21", "target.or.system": "A549 NSCLC", "observed.result": "2.59 µM"}

Then there is this molecule:
Name the recorded GI50 for "O=C(O)[C@@H](Cc1ccccc1)NS(=O)(=O)c1ccc(-c2ccccc2)cc1" . > 100 µM
